Molecular target: SHP2-C SH2;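 also: peptide library displayed on the E. coli surface as eCPX fusions, selected cells deep-sequenced, score is each peptide's frequency after selection divided by its frequency in the input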
Assay: SH2 binding enrichment of the phosphorylated peptide, bacterial display (enrichment ratio); higher = better substrate or ligand; peptides without Tyr show the background
Response field class: string, computed from recorded SH2 binding enrichment by ranges I = under 0.7, II = from 0.7 up to 0.9, III = 0.9 and over

>>> label_value("CWAVKYLQMVG [AVPR2_Y117_R113W]")
"III"
>>> label_value("SVTCTYSPAVN [TP53_Y126_L130V]")
"I"
>>> label_value("RVLHNYLVWRV [ECEL1_Y400]")
"III"
>>> label_value("SFCFRYRCAAR [SUMF1_Y344_YF]")
"I"
>>> label_value("RSRRSYSCQVM [IGLL1_Y192]")
"I"

Consider the record given below.
Sort into band: VGGRIYIDDAL [PKLR_Y218_G222A]
II
